- assayedSystem: UniProt:P35372
- Sequence (P35372 whole entry): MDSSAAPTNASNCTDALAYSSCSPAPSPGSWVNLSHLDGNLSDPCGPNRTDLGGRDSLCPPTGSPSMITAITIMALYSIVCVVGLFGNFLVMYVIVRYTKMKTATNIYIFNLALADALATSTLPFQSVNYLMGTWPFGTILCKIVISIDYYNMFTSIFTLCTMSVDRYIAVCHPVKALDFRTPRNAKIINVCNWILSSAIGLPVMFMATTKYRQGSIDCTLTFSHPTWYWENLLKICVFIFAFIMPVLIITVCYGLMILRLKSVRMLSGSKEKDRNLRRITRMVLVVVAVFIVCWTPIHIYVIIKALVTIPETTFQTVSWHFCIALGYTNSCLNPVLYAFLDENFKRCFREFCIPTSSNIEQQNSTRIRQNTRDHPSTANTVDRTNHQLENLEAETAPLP
- setupConditions: shift of DAMGO dose-response curve by test agent, hMOR-CHO membranes, ± SD
observationType: log10(Ke) (log10 of the value in nM)

molecule: Oc1cccc([C@@]23CCC[C@@H](C2)N(C[C@H]2C[C@@H]2c2ccccc2)CC3)c1 [(+)−30]
assayedSystem: UniProt:P35372
observationType: log10(Ke)
testResult: 0.34

molecule: Oc1cccc([C@@]23CCC[C@@H](C2)N(C[C@@H]2C[C@@H]2c2ccccc2)CC3)c1 [(−)−31]
assayedSystem: UniProt:P35372
observationType: log10(Ke)
testResult: 0.93

molecule: Oc1cccc([C@]23CCC[C@H](C2)N(C[C@H]2C[C@@H]2c2ccccc2)CC3)c1 [(+)−29]
assayedSystem: UniProt:P35372
observationType: log10(Ke)
testResult: -0.77

molecule: Oc1cccc([C@@]23CCC[C@@H](C2)N(C[C@@H]2C[C@H]2c2ccccc2)CC3)c1 [(−)−29]
assayedSystem: UniProt:P35372
observationType: log10(Ke)
testResult: 0.97

molecule: Oc1cccc([C@@]23CCC[C@@H](C2)N(C[C@H]2C[C@H]2c2ccccc2)CC3)c1 [(+)−32]
assayedSystem: UniProt:P35372
observationType: log10(Ke)
testResult: 1.26

molecule: Oc1cccc([C@]23CCC[C@H](C2)N(C[C@@H]2C[C@@H]2c2ccccc2)CC3)c1 [(−)−32]
assayedSystem: UniProt:P35372
observationType: log10(Ke)
testResult: 0.91

molecule: Oc1cccc([C@]23CCC[C@H](C2)N(C[C@@H]2C[C@H]2c2ccccc2)CC3)c1 [(−)−30]
assayedSystem: UniProt:P35372
observationType: log10(Ke)
testResult: -0.51

molecule: Oc1cccc([C@]23CCC[C@H](C2)N(C[C@H]2C[C@H]2c2ccccc2)CC3)c1 [(+)−31]
assayedSystem: UniProt:P35372
observationType: log10(Ke)
testResult: 1.52

Just for reference, paper PMC3047451 is where these values come from.
